# Tested on: K562
# TEST NAME: NCI tumour cell line growth inhibition, 48 h
Active and inactive are the calls of the source. No stated cut-off is given here; in the data, active = GI50 up to about 1.1 µM and inactive = higher. *1 amine or outer side, *2 acyl side, *3 side chain or, on linkers, in order; H or OH if unused. Where a SMILES comes first, the peptide text is derived from it. Bridges are numbered along the chain shown (N, C = ends). Roman numbers before positions name the chains, in order. [ ]: non-standard residue; d: D form. Actinocin(9to1) = Cc1c2oc3c(C)ccc(C(=O)[*:1])c3nc-2c(C(=O)[*:2])c(N)c1=O; NMeV = CN[CH](C(=O)O)C(C)C; Sar = CNCC(=O)O
Classes used: 1 for active, -1 for inactive

- NS(=O)(=O)c1cc2c(cc1Cl)N=C(CCC(=O)O)NS2(=O)=O: -1
- CC(C)[C@H]1CO[C@@H]2O[C@H](C)CC(=O)N21: -1
- C[C@]12CC[C@H](O)C=C1CC[C@@H]1[C@@H]2CC[C@]2(C)C(=N/O)/C(=C/c3ccncc3)C[C@@H]12: -1
- Clc1cc(Cl)cc(C2SCc3nc4ccccc4n32)c1 (stereo unspecified): -1
- N=C(N)NCC(N)C(=O)O (stereo unspecified): -1
- C=COC(=O)N[C@H]1CCc2cc(OC)c(OC)c(OC)c2-c2ccc(SC)c(=O)cc21: 1
- COC(=O)c1cc2c3c(ccc2[nH]1)N(C(=O)c1cc2c4c(ccc2[nH]1)N(C(=O)c1cc2c5c(ccc2[nH]1)N(C(N)=O)CC5)CC4)CC3: -1
- CN(c1ccc(C(=O)c2ccc(N(C)S(C)(=O)=O)cc2)cc1)S(C)(=O)=O: -1
- CN(C)CC(CO)(CN(C)C)CN(C)C: -1
- COc1ccc2c(c1)-c1oc3ccccc3c(=O)c1CO2: -1
- Cc1c2oc3c(C)ccc(C(=O)NC4C(=O)NC(C(C)O)C(=O)N5CCCC5C(=O)N(C)CC(=O)N(C)C(C(C)C)C(=O)OC4C)c3nc-2c(C(=O)NC2C(=O)NC(C(C)O)C(=O)N3CCCC3C(=O)N(C)CC(=O)N(C)C(C(C)C)C(=O)OC2C)c(N)c1=O (stereo unspecified) (I: TTP[Sar][NMeV] / II: TTP[Sar][NMeV]; ester I:1-I:C, II:1-II:C; linker I:N-II:N via Actinocin(9to1); configuration not given here): 1

----------
# Test system: SF-268
# TEST NAME: NCI tumour cell line growth inhibition, 48 h
The source made the active and inactive calls. Cut-off read from the data, not from the text of the source: active = GI50 up to about 1.1 µM and inactive = higher.
Reported GI50 values for a set of molecules
QUANTITY: GI50

• CCO[C@]12C[C@H](OC)[C@@]3(O)CC(C1[C@H]3OCc1ccccc1)C13C4C2[C@H](OC)C1[C@](COC)(CN4CC)[C@H](O)C[C@@H]3OC (stereo partly drawn) = > 100 µM (inactive)
• CC1=NC(C)(C)N(O)C1(C)C = > 100 µM (inactive)
• OC(c1ccc2c(c1)OCO2)c1ccc2c(c1)OCO2 = 53.6 µM (inactive)
• O=C1c2ccccc2C(=O)c2c(NC3CCCCC3)ccc(Nc3ccc(S(=O)(=O)O)cc3)c21 = 34.8 µM (inactive)
• C[C@]12CC[C@H](O)C=C1CC[C@@H]1[C@@H]2CC[C@]2(C)C(=N/O)/C(=C/c3ccncc3)C[C@@H]12 = 15.2 µM (inactive)
• Fc1ccccc1CN1COc2c(cc(Cl)c3cccnc23)C1 = 2.62 µM (inactive)
• CSC1(SC)N2Cc3ccccc3N=C2C1(c1ccccc1)c1ccccc1 = 21.3 µM (inactive)
• C=CC1=C(C)c2cc3[nH]c(c4c5nc(cc6[nH]c(cc1n2)c(C=O)c6CC)C(C)=C5C(=O)[C@@H]4C(=O)OC)[C@@H](CCC(=O)O)[C@@H]3C = 24.4 µM (inactive)
• COc1ccc(CCc2ccc(O)c(C(=O)O)c2)cc1OC = > 100 µM (inactive)
• C=C(CCOC)CCC1CCCCC/C1=N\N(C)C (stereo not drawn) = > 100 µM (inactive)
• CC1(C)OC2OC(COC(=O)C(c3ccccc3)c3ccccc3)C3OC(C)(C)OC3C2O1 (stereo not drawn) = 16.9 µM (inactive)
• CC(=N/NC(=S)N1CCCCC1)/C(=N\NC(=S)N1CCCCC1)c1ccccc1 = 1.79 µM (inactive)
• Cc1cc(N(CCC#N)CCC#N)ccc1/C=C1\N=C(c2cc([N+](=O)[O-])ccc2Cl)N(NC(=O)c2ccc(/N=C\c3ccc(N(CCC#N)S(C)(=O)=O)cc3C)cc2)C1=O = > 100 µM (inactive)

----------
Reported GI50 values for a set of compounds
# Tested on: NCI-H226
# TEST NAME: NCI tumour cell line growth inhibition, 48 h
Calls of active or inactive are those of the source. No stated cut-off is given here; in the data, active = GI50 up to about 1.1 µM and inactive = higher.
QUANTITY: GI50

• COc1ccc2c(c1)-c1oc3ccccc3c(=O)c1CO2 = 50.4 µM (inactive)
• COC1(OC)CC(CO)(COc2cc(Cl)nc(N)n2)C1 = > 100 µM (inactive)
• N=C(CC(=O)NOC(=O)c1ccccc1)NOC(=O)c1ccccc1 = 12.8 µM (inactive)
• CN(C)N1C(=O)C(=O)N(c2cccc3ccccc23)C1=O = > 10 µM (inactive)
• COc1ccc(/C=C/C(=O)c2cc(CN(C)C)c(O)c(CN(C)C)c2)cc1 = 40.1 µM (inactive)
• NCc1ccc(C(=O)O)cc1 [AMINOMETHYLBENZOIC ACID] = > 100 µM (inactive)
• CN(C(=O)C12C3C4C1C1C2C3C41C(N)=O)C(C)(C)C (stereo not drawn) = > 100 µM (inactive)
• Cc1ccccc1NC(=O)CSc1nnc(Cc2ccccc2)o1 = > 100 µM (inactive)
• CCOC(=O)C(=O)Nc1ccc([N+](=O)[O-])cc1C#N = > 100 µM (inactive)
• CCNC(=S)N/N=C/c1ccccn1 = 3.83 µM (inactive)
• O=C1Nc2c(Cl)cc(Cl)cc2/C1=N/NC(=O)c1ccccc1O = 14.8 µM (inactive)
• OCCNCCN1CCN(CCCN2c3ccccc3Sc3ccc(C(F)(F)F)cc32)CC1 = 26.5 µM (inactive)
• O=C(O)C(=C\c1ccc2c(c1)OCO2)/C(=C/c1ccc2c(c1)OCO2)C(=O)O = > 100 µM (inactive)

----------
# System: UACC-62
# TEST NAME: NCI tumour cell line growth inhibition, 48 h
The source made the active and inactive calls. Rule as the data show it: active = GI50 up to about 1.1 µM and inactive = higher.
QUANTITY: GI50

* COc1cc(S(=O)(=O)Nc2ccc(-c3csc(N4C(=O)C(Cl)C4c4ccccc4O)n3)cc2)ccc1Cl (stereo not given) | 17 µM (inactive)
* O=C1C2c3[nH]c4ccccc4c3[C@@H]3CCCCC3C2C(=O)N1c1ccccc1 (stereo not given in full) | 16.6 µM (inactive)
* CN1C2CCC1C(C(O)c1ccccc1[N+](=O)[O-])C(=O)C2 (stereo not given) | > 100 µM (inactive)
* O=C1c2ccccc2C2(c3ccc(Cl)cc3)N[C@H]3CCCC[C@@H]3N12 (stereo not given in full) | > 100 µM (inactive)
* N=C(N)NCC(N)C(=O)O (stereo not given) | > 100 µM (inactive)
* O=C(c1ccco1)N(C(=S)N1CCN(c2ccccc2)CC1)c1ccccc1 | > 100 µM (inactive)
* CCOC(=O)c1ccc(Nc2nc3ccccc3nc2C(=O)OCC)cc1 | > 100 µM (inactive)
* COC(=O)c1ccccc1C1CN=NC12Cc1c(C)cccc1C2=O (stereo not given) | > 100 µM (inactive)
* Cc1ccc(C(=O)/C=C(\O)C(=O)NN=C(c2ccccc2)c2ccccc2)cc1 | 68.9 µM (inactive)
* O=C1OC(=O)c2c1c(-c1ccccc1)cn2-c1ccc(Cl)cc1 | 1.64 µM (inactive)
* NC(=O)N/N=C(\CC1OC(=O)c2ccccc21)c1ccco1 (stereo not given) | > 100 µM (inactive)
* CC1=NC(=O)CNN1C1=NNC2(C(=O)N1)c1ccccc1-c1ccccc12 | > 100 µM (inactive)
* COc1ccc(/N=N/C(=O)NC(CC(C)C)C(N)=O)cc1 (stereo not given) | 6.92 µM (inactive)
* N#C/C(=C\c1ccc2ccccc2c1)c1ccccc1 | 13.1 µM (inactive)
* N/C(=N\c1ccccc1Cl)c1ccccc1N | > 100 µM (inactive)
* CN(C)CC1CCC/C(=C\c2ccccc2)C1=O (stereo not given) | 7.01 µM (inactive)
* CC(C)c1cc(C(C)C)c(P2(=O)CC3C(Cl)(Cl)C3(C)C2)c(C(C)C)c1 (stereo not given) | 8.04 µM (inactive)
* O=C(/C=C/c1ccc(OCCSCCCCCCCCCCSCCOc2ccc(/C=C/C(=O)c3ccc(Cl)cc3)cc2)cc1)c1ccc(Cl)cc1 | > 80.9 µM (inactive)
* O=C1OC(c2ccccc2)=N/C1=C\c1ccccc1 | > 100 µM (inactive)
* COC(=O)C1=CO[C@@H](OC2OC(CO)C(O)C(O)C2O)[C@@H]2[C@H](C)[C@@H](O)[C@@H](O)[C@]12O (stereo not given in full) | > 100 µM (inactive)
